Origin of values: paper PMC7037651

- target: T1, soluble EGFR (sEGFR) (Homo sapiens (assumed; EGFR on human …, UniProt P00533)
- T1 construct: soluble epidermal growth factor receptor (sEGFR); also called epidermal growth factor receptor; immobilized EGFR; source: prepared as described previously [28]
- assaySummary: SPR; Biacore 2000; sEGFR immobilised on a CM5 chip (amount not given for Tables 2 and 5); running buffer PBS with 0.005% Tween20; scFv monomer or dimer injected for 120 s at 10 to 250 nM; global fit, 1:1 Langmuir model
- assayConditions: both partners purified
Property: pKd; scope: individual binders
The value called pKd is obtained by taking minus log10 of the concentration in mol/L.

# binder, reportedValue
data = [
    ("0K h528 scFv (scFv, V domains shown, linker (GGGGS)3; it looks like Kabat numbering; also called h528 scFv without lysine in the CDR and FR) VH: QVQLVQSGAEVAEPGASVQVSCAASGYTFTSYWMHWVRQAPGQGLEWMGNIYPGSGGTNYAEEFQNRVTMTRDTSISTAYMELSRLRSDDTAVYYCARSGGPYFFDYWGQGTLVTVSS VL: DIVMTQSPLSLPVTPGEPASISCRSSQNIVHNNGITYLEWYLQRPGQSPQLLIYQVSDRFSGVPDRFSGSGSGTDFTLTISRVEAEDVGVYYCFQGSHIPPTFGQGTEVEIE", 6.86),
    ("LK103-0K h528 scFv (scFv, V domains shown, linker (GGGGS)3; lysine kept at L103; also called LK103-0K scFv) VH: QVQLVQSGAEVAEPGASVQVSCAASGYTFTSYWMHWVRQAPGQGLEWMGNIYPGSGGTNYAEEFQNRVTMTRDTSISTAYMELSRLRSDDTAVYYCARSGGPYFFDYWGQGTLVTVSS VL: DIVMTQSPLSLPVTPGEPASISCRSSQNIVHNNGITYLEWYLQRPGQSPQLLIYQVSDRFSGVPDRFSGSGSGTDFTLTISRVEAEDVGVYYCFQGSHIPPTFGQGTKVEIE", 6.69),
    ("0KCDR h528 scFv (scFv, V domains shown, linker (GGGGS)3; it looks like Kabat numbering; also called 0KCDR scFv) VH: QVQLVQSGAEVKKPGASVKVSCKASGYTFTSYWMHWVRQAPGQGLEWMGNIYPGSGGTNYAEEFQNRVTMTRDTSISTAYMELSRLRSDDTAVYYCARSGGPYFFDYWGQGTLVTVSS VL: DIVMTQSPLSLPVTPGEPASISCRSSQNIVHNNGITYLEWYLQKPGQSPQLLIYQVSDRFSGVPDRFSGSGSGTDFTLKISRVEAEDVGVYYCFQGSHIPPTFGQGTKVEIK", 7.42),
]

Consider the record given below.
Which value of pKd has been reported for HK19-0K h528 scFv (scFv, V domains shown, lysine kept at H19; linker (GGGGS)3; 0K scFv with the 19th residue of VH returned to lysine; also called HK19-0K scFv; KH19-0K scFv) VH: QVQLVQSGAEVAEPGASVKVSCAASGYTFTSYWMHWVRQAPGQGLEWMGNIYPGSGGTNYAEEFQNRVTMTRDTSISTAYMELSRLRSDDTAVYYCARSGGPYFFDYWGQGTLVTVSS VL: DIVMTQSPLSLPVTPGEPASISCRSSQNIVHNNGITYLEWYLQRPGQSPQLLIYQVSDRFSGVPDRFSGSGSGTDFTLTISRVEAEDVGVYYCFQGSHIPPTFGQGTEVEIE in the records?
6.87
